Where these numbers come from: patent US20240124428A1

- procedure-summary: Dedicated pharmacokinetic study, single oral dose
- Assay type: in vivo, C57BL/6 mice
- applied-conditions: female, C57BL/6, mouse, plasma; mice; route and dose not given (PO 50 mg/kg study)
result-type: AUC(0-t) (µg·h/mL)

                                   compound  recorded_result
0  Cc1cn(-c2cc(CN3CCC[C@H](N)C3)cc(NC(=O)c3cc(-c4ccccc4)ccn3)c2)cn1 [compound 29]             8.13

(I) Cc1cnc(C(=O)Nc2cc(CN3CCC(F)(F)[C@H](N)C3)cc(-c3ccc(C(F)(F)F)nc3)c2)cc1-c1ccccc1 [compound 131]
(II) Cc1ccc(-c2cc(CN3CCC(F)(F)[C@H](N)C3)cc(NC(=O)c3cc(-c4ccccc4)ccn3)c2)cn1 [Compound 122]
**Query** Which numeric AUC(0-t) is bigger, that of I or that of II ? Let me know the label of the one you choose.
**Result** II
(II: 173 µg·h/mL, I: 98.5 µg·h/mL)
